assay: Functional CPE-based assay to measure dose dependent changes in cell viability from drug treatment in Vero E6 miRFP670 cells (cotreated with P-gp inhibitor, CP100356). Cells are treated with antiviral candidates that have been serially diluted. Cytotoxicity is reported via analysis of MTS assays in uninfected cells. The assay has been performed by KU Leuven.; assay type: toxicity, Vero C1008; conditions: chlorocebus sabaeus, Vero E6 miRFP670 cells, with CP100356 (P-gp inhibitor, concentration not stated); p-gp concentration 500 nM
Experimental endpoint: CC50

Prompt: Provide only the value of recorded CC50 for CCOCCNC(=O)[C@H](Nc1ccc2c(c1)CNC2)c1cc(Cl)cc2[nH]ncc12
Response: > 50 µM

====

assay: Functional metabolic assay to measure dose dependent changes in cell viability from drug treatment in Vero E6/TMPRSS2 cells (cotreated with P-gp inhibitor, Elacridar). […] Cytotoxicity is reported via measuring absorbance and analysis of MTT/MTS assays in uninfected cells. The assay has been performed by Icahn School of Medicine at Mount Sinai.; format: toxicity, cell-based, VeroE6/TMPRSS2; conditions: chlorocebus sabaeus, veroe6/tmprss2; p-gp concentration 2 uM
Experimental endpoint: CC50 (µM)
Report the value in µM with no unit label.

Some solved cases for reference:
Prompt: # return recorded CC50 for entry Cc1cc(CN)cc(NC(=O)c2cc(Cl)cc(NC(=O)OCc3ccccc3)c2)c1
Response: 16.6

Prompt: Tell us which CC50 value is on record for O=C(Nc1ccc2c(c1)CNC2)c1cc(Cl)cc(-n2cccc2)c1
Response: 34.8

Pending compound:
Prompt: Look up and state reported CC50 for O=C(O)c1cc(Oc2ccc(F)cc2)c(F)cc1NS(=O)(=O)c1ccc(Oc2ccccc2Cl)cc1
Response: 44

====

experiment: Functional CPE-based assay to measure dose dependent changes in cell viability from drug treatment in Vero E6 miRFP670 cells. Cells are treated with antiviral candidates that have been serially diluted. Cytotoxicity is reported via analysis of MTS assays in uninfected cells. The assay has been performed by KU Leuven.; type: toxicity, Vero C1008; conditions: chlorocebus sabaeus, Vero E6 miRFP670 cells
Experimental endpoint: CC50 (µM)
Number only, in µM; omit the unit.

A selection of reference data follows.
Prompt: Using the record for CCOCCNC(=O)c1cc(Cl)ccc1NS(=O)(=O)c1ccc(Oc2ccccc2Cl)cc1 , state its measured CC50.
Response: 8.81

Prompt: Consider the compound CC(C)(C)c1cc(Br)cc(C(=O)Nc2ccc3c(c2)CNC3)c1 and give its recorded CC50.
Response: 5.77

Prompt: Indicate its recorded CC50; the compound in question is CC(C)Cc1nc2c(C(=O)Nc3ccc4c(c3)CNC4)cc(Br)cc2[nH]1
Response: 0.623

Prompt: For the compound O=C(NC1CCCCC1)c1cc(Cl)ccc1NS(=O)(=O)c1ccc(Oc2ccccc2Cl)cc1 , give its measured CC50 value.
Response: 3.46

Pending compound:
Prompt: Answer with reported CC50 of NCc1cc(NC(=O)c2cc(Cl)cc(NC(=O)OCc3ccccc3)c2)cc([C@@H]2C[C@H]2C(=O)O)c1
Response: 9.99

====

assay: Functional metabolic assay to measure dose dependent changes in cell viability from drug treatment in Vero E6/TMPRSS2 cells (cotreated with P-gp inhibitor, Elacridar). […] Cytotoxicity is reported via measuring absorbance and analysis of MTT/MTS assays in uninfected cells. The assay has been performed by Icahn School of Medicine at Mount Sinai.; format: toxicity, cell-based, VeroE6/TMPRSS2; conditions: chlorocebus sabaeus, Vero E6/TMPRSS2 cells, with Elacridar (P-gp inhibitor, concentration not stated); p-gp concentration 2 uM
List of CC50 values.

Prompt: Return value of CC50 for input O=C(O)CCc1ccc(NC(=O)c2cc(Cl)cc(NC(=O)OCc3ccccc3)c2)cc1 , no commentary.
Response: > 50 µM

Prompt: # return recorded CC50 for input NCCc1cccc(NC(=O)[C@H]2[C@H]3CCCCC[C@H]3[C@H]2NC(=O)OCc2ccccc2)c1
Response: 4.88 µM

Prompt: Report measured CC50; entry is Cc1ccc(NC(=O)c2cc(Cl)cc3[nH]ncc23)cc1CN
Response: > 50 µM

Prompt: Query CC50 for COC(=O)CNC(=O)[C@H](Nc1ccc2c(c1)CNC2)c1cc(Cl)cc(C2CC2)c1
Response: > 50 µM

Others:
Prompt: Please give the documented CC50 of c1cc(C2CCN(Cc3c[nH]c4ccccc34)CC2)c2ccncc2c1
Response: > 50 µM

====

assay: Functional assay to measure dose dependent changes in cell viability from drug treatment in Vero E6 miRFP670 cells (cotreated with P-gp inhibitor, CP100356) that are infected with Dengue virus type 2 New Guinea C. […] Cytotoxicity is reported via via analysis of DAPI count using high-content imager. The assay has been performed by KU Leuven.; type: toxicity, cell-based, Vero C1008; settings: chlorocebus sabaeus, with CP100356 (P-gp inhibitor, concentration not stated); p-gp concentration 500 nM
Listing: CC50 of selected molecules

Worked cases, CC50 given:
Prompt: Please look at this molecule and report its CC50: O=C(Nc1cc2c(c(-c3c[nH]c(=O)c(F)c3)c1)CNC2)c1cc(F)cc2[nH]ncc12
Response: > 50 µM

Prompt: Indicate the recorded CC50 value for this molecule: c1ccc(-c2csc(C3CCN(Cc4c[nH]c5ccccc45)CC3)n2)cc1
Response: > 10 µM

Prompt: Please supply the value of reported CC50 for the item O=C(Nc1ccc2c(c1)CNC2)c1cc(F)cc(-c2cccnc2)c1
Response: > 50 µM

Prompt: Specify CC50 for O=C1Cc2c(cccc2C(=O)Nc2ccc3c(c2)CNC3)N1 and stop.
Response: > 50 µM

Prompt: Provide CC50 value for the following molecule: Cn1c(=O)[nH]c2c(C(=O)Nc3ccc4c(c3)CNC4)cc(Br)cc21
Response: > 50 µM

Prompt: Return CC50 for the following molecule: Cc1c(C(=O)Nc2cc([C@H]3CCOC3)ccn2)cc(C2CC2)n1C
Response: > 50 µM

Further cases:
Prompt: Dear colleague, please send me the reported CC50 for O=C(Nc1ccc2c(c1)CNC2)c1cccc2c(C3CNC3)n[nH]c12 when you can.
Response: > 50 µM

Prompt: State, in one line, measured CC50 of O=C(Nc1ccc2c(c1)CNC2)c1cc(Cl)cc(-n2cccc2)c1
Response: > 50 µM

Prompt: Please look at this molecule and report its CC50: CCCCCC(=O)N[C@H](C(=O)N1CCCCC1)c1ccc(OCc2ccccc2)cc1
Response: > 10 µM

Prompt: Output CC50 of C#C[C@@]1(O)[C@H](O)[C@@H](CO)O[C@H]1n1ccc2c(N)ncnc21
Response: > 50 µM

====

test: Functional CPE-based assay to measure dose dependent changes in cell viability from drug treatment in Vero E6 miRFP670 cells (cotreated with P-gp inhibitor, CP100356). Cells are treated with antiviral candidates that have been serially diluted. Cytotoxicity is reported via analysis of MTS assays in uninfected cells. The assay has been performed by KU Leuven.; assay type: toxicity, Vero C1008; conditions: chlorocebus sabaeus, Vero E6 miRFP670 cells, with CP100356 (P-gp inhibitor, concentration not stated); p-gp concentration 500 nM
Experimental endpoint: CC50

Example cases with answers are listed next.
Prompt: Tell me CC50 reported for O=C(Nc1cc2c(cc1C1CC1)CNC2)c1cc(F)cc2[nH]ncc12
Response: > 50 µM

Prompt: Fill in CC50 for record O=C(Nc1ccc2c(c1)CNC2)c1cc(F)cc(-c2cn[nH]c2)c1
Response: > 50 µM

Prompt: State its CC50: C=Cc1cc2c(cc1NC(=O)c1cc(F)cc3[nH]ncc13)CNC2
Response: > 50 µM

New cases:
Prompt: Supply reported CC50 belonging to this molecule: O=C(Nc1ccc2c(c1)CNC2)c1cc(Cl)cc2[nH]c(-c3cccc(F)c3)nc12
Response: > 50 µM

Prompt: # return recorded CC50 for entry O=C(Nc1cc(Cl)cc(C(=O)Nc2ccc(-n3nn[nH]c3=O)cc2)c1)OCc1ccccc1
Response: > 50 µM

Prompt: State its CC50: O=C(Nc1ccc2c(c1)CNC2)c1cc(Cl)cc2c1cnn2C[C@H]1CCCO1
Response: 26.9 µM

Prompt: Supply measured CC50 of CC(C)n1cc2c(C(=O)Nc3ccc4c(c3)CNC4)cc(Cl)cc2n1 in your reply.
Response: 11.8 µM

Prompt: Consider the molecule O=C(Nc1ccc2c(c1)CN[C@H]2C[C@H](O)CO)c1cc(F)cc2[nH]ncc12 and give its recorded CC50.
Response: > 50 µM

====

Some compounds, each annotated with its measured CC50.
test: Functional assay to measure dose dependent changes in cell viability from drug treatment in Vero E6 miRFP670 cells (cotreated with P-gp inhibitor, CP100356) that are infected with Dengue virus type 2 New Guinea C. […] Cytotoxicity is reported via via analysis of DAPI count using high-content imager. The assay has been performed by KU Leuven.; format: toxicity, cell-based, Vero C1008; details: chlorocebus sabaeus, with CP100356 (P-gp inhibitor, concentration not stated); p-gp concentration 500 nM
Kindly provide the numeric value in µM only, without the unit symbol.

Prompt: Tell us which CC50 value is on record for O=C(O)Cc1c[nH]c2cc(-c3cc(Cl)cc(NC(=O)OCc4ccccc4)c3)ccc12
Response: 18

Prompt: Return CC50 for the following compound: O=C(Nc1cc(Cl)cc([C@H]2CN(Cc3ccccc3)C[C@@H]2c2cccc(-c3nn[nH]n3)c2)c1)OCc1ccccc1
Response: 12.3

Prompt: Entry CCNC(=O)Nc1cc(Cl)cc(C(=O)Nc2ccc3c(c2)CNCCO3)c1 needs its CC50 filled in; supply it.
Response: 35.3

Next:
Prompt: Give a short answer stating reported CC50 for O=C(NCC(F)F)[C@H](Nc1cc2c(cc1Br)CNC2)c1cc(Cl)cc(C2CC2)c1 .
Response: 6.39

Prompt: Return reported CC50. Input compound: O=C(Nc1ccc2c(c1)CNCCC2)c1cc(Cl)cc2[nH]ncc12
Response: 2.18

Prompt: // fetch CC50 given entry O=C(Nc1ccc2c(c1)CNC2)c1cc(Cl)cc2[nH]c(-c3c[nH]c(=O)c(Br)c3)nc12
Response: 14.3
